# Target or system: cardiac β-receptors (Felis catus, UniProt Q9TST6)
# Construct: All compounds were thereby tested in anaeshtetized cats; from tissue; host or cells: heart of the living, reserpinized, anaesthetized cat
# Sequence (Q9TST6 whole entry): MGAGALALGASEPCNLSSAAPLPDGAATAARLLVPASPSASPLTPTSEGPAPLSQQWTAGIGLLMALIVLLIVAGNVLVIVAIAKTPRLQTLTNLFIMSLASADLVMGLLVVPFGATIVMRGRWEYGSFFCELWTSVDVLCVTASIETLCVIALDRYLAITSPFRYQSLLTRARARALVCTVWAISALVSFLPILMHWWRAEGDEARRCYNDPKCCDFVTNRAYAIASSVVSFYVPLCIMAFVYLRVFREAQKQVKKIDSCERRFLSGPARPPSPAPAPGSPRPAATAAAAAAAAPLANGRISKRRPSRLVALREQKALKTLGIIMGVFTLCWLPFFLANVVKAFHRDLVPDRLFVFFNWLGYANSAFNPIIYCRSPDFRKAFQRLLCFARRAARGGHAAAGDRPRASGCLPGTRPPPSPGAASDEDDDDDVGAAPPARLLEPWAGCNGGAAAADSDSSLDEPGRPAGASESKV
# Measurement description: β-blockade of isoprenaline heart rate response, reserpinized anaesthetized cat
# Type: in vivo
# Measurement conditions: iv, i.v. test compound, isoproterenol 0.1 μg/kg i.v., dose reducing response to 50 percent
Quick rule for you: ED50 under 0.5 µmol/kg gets Criterion met, anything else gets Criterion not met.

Examples from the recorded data:
{"Compound": "COc1ccccc1OCCNCC(O)COc1ccccc1C (stereo not drawn)", "Label": "Criterion not met"}
{"Compound": "COc1ccc(OCCNCC(O)COc2ccccc2C)cc1OC (stereo not drawn)", "Label": "Criterion not met"}
{"Compound": "CCCc1ccccc1OCC(O)CNCCOc1ccc(O)cc1 (stereo not drawn)", "Label": "Criterion met"}
{"Compound": "OCc1ccccc1OCC(O)CNCCOc1ccc(O)cc1 (stereo not drawn)", "Label": "Criterion met"}

Attention now shifts to the item below.
Problem: Given the entry Cc1ccccc1OCC(O)CNCCOc1ccccc1O (stereo not drawn) , would its reported ED50 be below 0.5 µmol/kg?
Solution: Criterion not met
